System: P388 leukemia ip, CD2F1 mice, survival T/C
Test: NCI In Vivo Anticancer Drug Screen. Data for tumor model P388 Leukemia (intraperitoneal) in CD2F1 (CDF1) mice
Details: endpoint: median survival time; dose: 200.0 mg/kg/injection; schedule: Q01DX005 (ip); vehicle: saline; higher = longer survival
Toxic doses and inconclusive results are not listed.
property_name: T/C

>>> obs_value("CN(CCO)c1ncnc2c1ncn2C")
"100 % of control"
>>> obs_value("CC(N)C(=O)NCC(=O)NCC(=O)O (stereo not drawn)")
"99 % of control"
>>> obs_value("CCN(CC)CCOC(=O)c1cc2cc3cc(C(=O)OCCN(CC)CC)c(=O)oc3c(C)c2oc1=O")
"107 % of control"

Record CCCCCC(O)/C=C/[C@H]1C(O)CC2O/C(=C\CCCC(=O)O)C[C@@H]21 (stereo partly drawn) has P388 leukemia ip, CD2F1 mice, survival T/C T/C equal to 95 % of control

Record CCN(CC)C1=C(C)C2C(C)(C)N=NC12C(=O)OC (stereo not drawn) has P388 leukemia ip, CD2F1 mice, survival T/C T/C equal to 116 % of control

* * *

Listing: T/C of selected compounds
Test system: P388 leukemia ip, CD2F1 mice, survival T/C
Assay: NCI In Vivo Anticancer Drug Screen. Data for tumor model P388 Leukemia (intraperitoneal) in CD2F1 (CDF1) mice
Details: endpoint: median survival time; dose: 50.0 mg/kg/injection; schedule: Q04DX003 (ip); vehicle: saline with Tween-80; higher = longer survival
Inconclusive results and toxic doses are left out.

Record C/C(=N\[N+](C)(C)C)c1ccccc1 has P388 leukemia ip, CD2F1 mice, survival T/C T/C equal to 102 % of control

* * *

System: P388 leukemia ip, CD2F1 mice, survival T/C
Test: NCI In Vivo Anticancer Drug Screen. Data for tumor model P388 Leukemia (intraperitoneal) in CD2F1 (CDF1) mice
Conditions: endpoint: median survival time; dose: 100.0 mg/kg/injection; schedule: Q01DX009 (ip); vehicle: saline with Tween-80; higher = longer survival
Toxic doses and inconclusive results are not listed.
Listing: T/C of selected molecules

Field T/C (entry CCOC(=O)c1ccc(NCCC(C)=O)cc1 ) reads 86 % of control

* * *

Listing: T/C of selected molecules
System: P388 leukemia ip, CD2F1 mice, survival T/C
Experiment: NCI In Vivo Anticancer Drug Screen. Data for tumor model P388 Leukemia (intraperitoneal) in CD2F1 (CDF1) mice
Conditions: endpoint: median survival time; dose: 200.0 mg/kg/injection; schedule: Q01DX001 (ip); vehicle: saline; higher = longer survival
Toxic doses and inconclusive results are not listed.

Recorded T/C, per entry:
>>> obs_value("CC(=O)Oc1c2c(c(C)c3ccccc13)C(=O)c1cccnc1C2=O")
"89 % of control"
>>> obs_value("CC(C)=Cn1ccccc1=O")
"94 % of control"
>>> obs_value("CCOP(=O)(Nc1ccc(C)cc1C)OCC")
"107 % of control"
>>> obs_value("CC(C)(Oc1ccc(Cl)cc1)C(=O)OCCCC(=O)NC1CC(C)(C)N(O)C(C)(C)C1")
"105 % of control"
>>> obs_value("CC1(C)OC(COCCO)C(COCCO)O1 (configuration not stated)")
"91 % of control"

Field T/C (entry Nc1nc(N)nc(-c2cccnc2)n1 ) reads 118 % of control

Field T/C (entry C=C1CC2(CC(C)CCC2C(=C)C)OC1=O (configuration not stated) ) reads 102 % of control
